tested.target: S. aureus DltA (Staphylococcus aureus (strain NCTC 8325 / PS 47), UniProt Q2FZW6)
assay.summary: in vitro DltA activity assay (luminescence), S. aureus DltA
Format: biochemical
stated.conditions: recombinant DltA, 30 min pre-incubation, 0.5 mM D-Alanine, 0.5-5 μM ATP; read-out: S. aureus DltA IC50
pIC50: −log10 of the molar value.
result.type: pIC50

[[record]]
compound = "O=[N+]([O-])c1c(N2CC[C@H](CO)[C@@H](O)C2)cc(-c2ccc3c(c2)ncn3C2CCCCC2)c2nc[nH]c12"
readout_number = 7.31

[[record]]
compound = "CN1CCC[C@@H]1COc1cc(-c2ccc3c(c2)ncn3C2CCCCC2)c2nc[nH]c2c1C(N)=O"
readout_number = 9.40

[[record]]
compound = "c1nc2c(-c3ccc4c(c3)ncn4C3CCCCC3)nc(N3CC4CNCC4C3)cc2[nH]1 (stereo not shown)"
readout_number = 7.42

[[record]]
compound = "CCN(CC)CCN(C)c1cc(-c2ccc3c(c2)ncn3C2CCCCC2)c2nc[nH]c2c1C(N)=O"
readout_number = 7.14


----------
tested.target: S. Agalactiae DltA (Streptococcus agalactiae serotype III (strain NEM316))
assay.summary: in vitro DltA activity assay (luminescence), S. agalactiae DltA
Assay type: biochemical
stated.conditions: recombinant DltA, 30 min pre-incubation, 0.5 mM D-Alanine, 0.5-5 μM ATP; read-out: S. Agalactiae DltA IC50
pIC50: −log10 of the molar value.
result.type: pIC50

[[record]]
molecule_smiles = "CN1CCC[C@@H]1COc1cc(-c2cnc3c(c2)CCCO3)c2nc[nH]c2c1C(N)=O"
readout_number = 6.82

[[record]]
molecule_smiles = "CN(C)CCN(C)c1cc(-c2cncc(C3CC3)c2)c2nc[nH]c2c1C(N)=O"
readout_number = 5.70

[[record]]
molecule_smiles = "CN(C)CCN(C)c1cc(-c2ccc3c(c2)ncn3C2CCC(F)(F)CC2)c2nc[nH]c2c1C(N)=O"
readout_number = 5.92

[[record]]
molecule_smiles = "CN(CCO)c1cc(-c2ccc3c(c2)ncn3C2CCCCC2)c2nc[nH]c2c1C(N)=O"
readout_number = 6.25

[[record]]
molecule_smiles = "CN(CCO)c1cc(-c2ccc3c(c2)ncn3[C@@H]2CCCC[C@H]2F)c2nc[nH]c2c1C(N)=O"
readout_number = 6.46

[[record]]
molecule_smiles = "OCCNc1cc(-c2ccc3c(c2)ncn3C2CCCCC2)c2nc[nH]c2n1"
readout_number = 5.51

[[record]]
molecule_smiles = "CCCCn1cnc2cc(-c3cc(N(C)CCN(C)C)c(C(N)=O)c4[nH]cnc34)ccc21"
readout_number = 6.46

[[record]]
molecule_smiles = "CN(C)CCN(C)c1cc(-c2ccc3scnc3c2)c2nc[nH]c2c1C(N)=O"
readout_number = 5.96


----------
Measured pIC50, listed per entry for reference.
tested.target: E. feacalis DltA (Enterococcus faecalis)
Sequence (Q830N0 1-506): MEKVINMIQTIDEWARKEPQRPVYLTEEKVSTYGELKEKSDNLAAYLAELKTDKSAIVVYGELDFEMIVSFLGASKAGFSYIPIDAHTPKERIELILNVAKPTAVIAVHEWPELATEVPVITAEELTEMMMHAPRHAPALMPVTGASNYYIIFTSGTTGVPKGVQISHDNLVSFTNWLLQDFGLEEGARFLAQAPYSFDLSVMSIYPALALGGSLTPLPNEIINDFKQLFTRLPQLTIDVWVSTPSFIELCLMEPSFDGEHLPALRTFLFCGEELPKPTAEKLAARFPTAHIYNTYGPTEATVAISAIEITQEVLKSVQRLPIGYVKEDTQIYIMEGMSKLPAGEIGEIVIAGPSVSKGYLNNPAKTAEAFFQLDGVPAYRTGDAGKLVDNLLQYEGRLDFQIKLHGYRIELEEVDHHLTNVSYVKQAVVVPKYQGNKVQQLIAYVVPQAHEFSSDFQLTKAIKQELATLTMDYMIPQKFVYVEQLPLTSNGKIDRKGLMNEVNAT
assay.summary: in vitro DltA activity assay (luminescence), E. faecalis DltA
Format: biochemical
stated.conditions: recombinant DltA, 30 min pre-incubation, 0.5 mM D-Alanine, 0.5-5 μM ATP; read-out: E. feacalis DltA IC50
pIC50: −log10 of the molar value.
result.type: pIC50

[[record]]
compound = "COCCN(C)c1cc(-c2ccc3c(c2)ncn3C2CCCCC2)c2nc[nH]c2c1C(N)=O [Example 176]"
readout_number = 7.46

[[record]]
compound = "c1nc2c(-c3ccc4c(c3)ncn4C3CCCCC3)cc(N3CC4CNCC4C3)cc2[nH]1 (stereo not shown) [Example 36]"
readout_number = 6.77

[[record]]
compound = "CN(C)CCN(C)c1cc(-c2ccc(N(C)C)nc2)c2nc[nH]c2c1C(N)=O [Example 205]"
readout_number = 8.04

[[record]]
compound = "CN(C)CCOc1cc(-c2ccc3c(c2)ncn3C2CCCCC2)c2nc[nH]c2c1C#N [Example 104]"
readout_number = 7.08


----------
tested.target: E. feacalis DltA (Enterococcus faecalis)
assay.summary: in vitro DltA activity assay (luminescence), E. faecalis DltA
Format: biochemical
stated.conditions: recombinant DltA, 30 min pre-incubation, 0.5 mM D-Alanine, 0.5-5 μM ATP; read-out: E. feacalis DltA IC50
pIC50: −log10 of the molar value.
result.type: pIC50

[[record]]
molecule = "CN(CCN1CCCC1)c1cc(-c2ccc3c(c2)ncn3C2CCCCC2)c2nc[nH]c2c1C(N)=O"
readout_number = 8.54

[[record]]
molecule = "CN(C)CCN(C)c1cc(-c2ccc3c(c2)ncn3C2CCCOC2)c2nc[nH]c2c1C(N)=O (centres unmarked)"
readout_number = 8.09

[[record]]
molecule = "CN(C)CCN(C)c1cc(-c2ccc3scnc3c2)c2nc[nH]c2c1C(N)=O"
readout_number = 7.62

[[record]]
molecule = "CCn1cnc2cc(-c3cc(N(C)CCN(C)C)c(C(N)=O)c4[nH]cnc34)cc(F)c21"
readout_number = 7.52

[[record]]
molecule = "NC(=O)c1c(N2CCC(CCO)C2)cc(-c2ccc3c(c2)ncn3C2CCCCC2)c2nc[nH]c12 (centres unmarked)"
readout_number = 7.39

[[record]]
molecule = "CN(C)CCN(C)c1cc(-c2cncc(C3CC3)c2)c2nc[nH]c2c1C(N)=O"
readout_number = 7.02

[[record]]
molecule = "OCC1(CO)CCN(c2cc(-c3ccc4c(c3)ncn4C3CCCCC3)c3nc[nH]c3c2)CC1"
readout_number = 7.10

[[record]]
molecule = "OCCC1CCN(c2cc(-c3ccc4c(c3)ncn4C3CCCCC3)c3nc[nH]c3n2)C1 (centres unmarked)"
readout_number = 7.14


----------
tested.target: S. Agalactiae DltA (Streptococcus agalactiae serotype III (strain NEM316), UniProt Q8VM67)
assay.summary: in vitro DltA activity assay (luminescence), S. agalactiae DltA
Assay type: biochemical
stated.conditions: recombinant DltA, 30 min pre-incubation, 0.5 mM D-Alanine, 0.5-5 μM ATP; read-out: S. Agalactiae DltA IC50
Counter-ions that a name gives are not always drawn.
result.type: IC50

[[record]]
compound = "COCCN(C)c1cc(-c2ccc3c(c2)ncn3C2CCCCC2)c2nc[nH]c2c1C(N)=O"
result_type = "IC50"
result = "2300 nM"

[[record]]
compound = "CCn1cnc2cc(-c3cc(N(C)CCN(C)C)c(C(N)=O)c4[nH]cnc34)cc(F)c21"
result_type = "IC50"
result = "1300 nM"

[[record]]
compound = "NC(=O)c1c(N2CC3CNCC3C2)cc(-c2ccc3c(c2)ncn3C2CCCCC2)c2nc[nH]c12 (stereo not shown) [Example 65, hydrochloride]"
result_type = "IC50"
result = "1800 nM"

[[record]]
compound = "OCC1(CO)CCN(c2cc3[nH]cnc3c(-c3ccc4c(c3)ncn4C3CCCCC3)n2)CC1"
result_type = "IC50"
result = "290 nM"


----------
Measured IC50, listed per entry for reference.
tested.target: UniProt:Q3XZT7
Sequence (Q3XZT7 1-504): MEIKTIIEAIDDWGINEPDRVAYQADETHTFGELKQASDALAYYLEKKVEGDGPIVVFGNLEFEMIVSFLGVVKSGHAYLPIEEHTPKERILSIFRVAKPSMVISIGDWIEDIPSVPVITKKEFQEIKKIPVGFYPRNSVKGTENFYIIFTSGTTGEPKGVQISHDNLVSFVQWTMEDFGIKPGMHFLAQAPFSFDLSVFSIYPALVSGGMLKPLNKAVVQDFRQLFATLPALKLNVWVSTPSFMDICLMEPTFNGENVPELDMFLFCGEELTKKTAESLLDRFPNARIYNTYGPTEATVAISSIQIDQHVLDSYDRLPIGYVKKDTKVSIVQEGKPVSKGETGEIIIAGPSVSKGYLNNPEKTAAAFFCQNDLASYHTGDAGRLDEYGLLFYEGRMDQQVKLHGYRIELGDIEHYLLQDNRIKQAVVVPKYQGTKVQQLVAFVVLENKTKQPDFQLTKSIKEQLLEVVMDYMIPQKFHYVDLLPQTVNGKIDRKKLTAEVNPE
assay.summary: in vitro DltA activity assay (luminescence), E. faecium DltA
Format: biochemical
stated.conditions: recombinant DltA, 30 min pre-incubation, 0.5 mM D-Alanine, 0.5-5 μM ATP; read-out: E. feacium DltA IC50
result.type: IC50 (nM)

[[record]]
compound = "OCCNc1cc(-c2ccc3c(c2)ncn3C2CCCCC2)c2nc[nH]c2n1"
result_type = "IC50"
readout_number = 2200

[[record]]
compound = "O=[N+]([O-])c1c(N2CC[C@H](CO)C2)cc(-c2ccc3c(c2)ncn3C2CCCCC2)c2nc[nH]c12"
result_type = "IC50"
readout_number = 170

[[record]]
compound = "CN(C)CCN(C)c1cc(-c2ccc3c(c2)ncn3C2CCCOC2)c2nc[nH]c2c1C(N)=O (stereo not shown)"
result_type = "IC50"
readout_number = 41

[[record]]
compound = "CCn1cnc2cc(-c3cc(N(C)CCN(C)C)c(C(N)=O)c4[nH]cnc34)cc(F)c21"
result_type = "IC50"
readout_number = 83

[[record]]
compound = "CN(CCO)c1cc(-c2ccc3c(c2)ncn3C2CCCCC2)c2nc[nH]c2c1C#N"
result_type = "IC50"
readout_number = 600

[[record]]
compound = "CN(C)CCN(C)c1cc(-c2cncc(C3CC3)c2)c2nc[nH]c2c1C(N)=O"
result_type = "IC50"
readout_number = 190

[[record]]
compound = "CN1CCCC1COc1cc(-c2cnc3c(c2)CCCO3)c2nc[nH]c2c1C(N)=O (stereo not shown)"
result_type = "IC50"
readout_number = 24

[[record]]
compound = "N#Cc1c(N2CC[C@H](CO)C2)cc(-c2ccc3c(c2)ncn3C2CCCCC2)c2nc[nH]c12"
result_type = "IC50"
readout_number = 230

[[record]]
compound = "OCC1(CO)CCN(c2cc(-c3ccc4c(c3)ncn4C3CCCCC3)c3nc[nH]c3c2)CC1"
result_type = "IC50"
readout_number = 170

[[record]]
compound = "NC(=O)c1c(N2CC[C@H](CO)C2)cc(-c2ccc3c(c2)ncn3C2CCCCC2)c2nc[nH]c12"
result_type = "IC50"
readout_number = 68

[[record]]
compound = "CN(C)CCN(C)c1cc(-c2cc3c4c(c2)ncn4CCO3)c2nc[nH]c2c1C(N)=O"
result_type = "IC50"
readout_number = 90

[[record]]
compound = "O=C(O)c1c(N2CC[C@H](CO)C2)cc(-c2ccc3c(c2)ncn3C2CCCCC2)c2nc[nH]c12"
result_type = "IC50"
readout_number = 360

[[record]]
compound = "CCn1cnc2cc(-c3cc(N(C)CCN(C)C)c(C(N)=O)c4[nH]cnc34)cc(OC)c21"
result_type = "IC50"
readout_number = 58

[[record]]
compound = "NC(=O)c1c(F)cc(-c2ccc3c(c2)ncn3C2CCCCC2)c2nc[nH]c12"
result_type = "IC50"
readout_number = 83

[[record]]
compound = "CN(CCO)c1cc(-c2ccc3c(c2)ncn3[C@@H]2CCCC[C@H]2F)c2nc[nH]c2c1C(N)=O"
result_type = "IC50"
readout_number = 40

[[record]]
compound = "CCN(CC)CCN(C)c1cc(-c2ccc3c(c2)ncn3C2CCCCC2)c2nc[nH]c2c1C(N)=O"
result_type = "IC50"
readout_number = 170

[[record]]
compound = "CN(C)CC1CCCN1c1cc(-c2ccc3c(c2)ncn3C2CCCCC2)c2nc[nH]c2c1C(N)=O (stereo not shown)"
result_type = "IC50"
readout_number = 240

[[record]]
compound = "COCCN(C)c1cc(-c2ccc3c(c2)ncn3C2CCCCC2)c2nc[nH]c2c1C(N)=O"
result_type = "IC50"
readout_number = 190

[[record]]
compound = "CN(C)CCOc1cc(-c2cnc3c(c2)CCCO3)c2nc[nH]c2c1C(N)=O"
result_type = "IC50"
readout_number = 59

[[record]]
compound = "CCCCn1cnc2cc(-c3cc(N(C)CCN(C)C)c(C(N)=O)c4[nH]cnc34)ccc21"
result_type = "IC50"
readout_number = 110

[[record]]
compound = "O=[N+]([O-])c1c(N2CC[C@H](CO)[C@@H](O)C2)cc(-c2ccc3c(c2)ncn3C2CCCCC2)c2nc[nH]c12"
result_type = "IC50"
readout_number = 96

[[record]]
compound = "CN(CCO)c1cc(-c2cnc3c(c2)CCCO3)c2nc[nH]c2c1C(N)=O"
result_type = "IC50"
readout_number = 320

[[record]]
compound = "NC(=O)c1c(N2CCC(CCO)C2)cc(-c2ccc3c(c2)ncn3C2CCCCC2)c2nc[nH]c12 (stereo not shown)"
result_type = "IC50"
readout_number = 110

[[record]]
compound = "OCCC1CCN(c2cc(-c3ccc4c(c3)ncn4C3CCCCC3)c3nc[nH]c3n2)C1 (stereo not shown)"
result_type = "IC50"
readout_number = 120

[[record]]
compound = "CN(C)CCN(C)c1cc(-c2ccc3c(c2)ncn3C2CCC(F)(F)CC2)c2nc[nH]c2c1C(N)=O"
result_type = "IC50"
readout_number = 69

[[record]]
compound = "OC[C@H]1CCN(c2cc(-c3ccc4c(c3)ncn4C3CCCCC3)c3nc[nH]c3n2)C[C@@H]1O"
result_type = "IC50"
readout_number = 86

[[record]]
compound = "OCC1CCN(c2cc(-c3ccc4c(c3)ncn4C3CCCCC3)c3nc[nH]c3n2)CC1"
result_type = "IC50"
readout_number = 100

[[record]]
compound = "N#Cc1c(N2CCC(CO)(CO)CC2)cc(-c2ccc3c(c2)ncn3C2CCCCC2)c2nc[nH]c12"
result_type = "IC50"
readout_number = 230

[[record]]
compound = "CN(CCN1CCCC1)c1cc(-c2ccc3c(c2)ncn3C2CCCCC2)c2nc[nH]c2c1C(N)=O"
result_type = "IC50"
readout_number = 18

[[record]]
compound = "c1nc2c(-c3ccc4c(c3)ncn4C3CCCCC3)nc(N3CC4CNCC4C3)cc2[nH]1 (stereo not shown)"
result_type = "IC50"
readout_number = 3700

[[record]]
compound = "N#Cc1c(NCCO)cc(-c2ccc3c(c2)ncn3C2CCCCC2)c2nc[nH]c12"
result_type = "IC50"
readout_number = 590

[[record]]
compound = "COCCn1cnc2cc(-c3cc(N(C)CCN(C)C)c(C(N)=O)c4[nH]cnc34)ccc21"
result_type = "IC50"
readout_number = 45

[[record]]
compound = "OC[C@H]1CCN(c2cc3[nH]cnc3c(-c3ccc4c(c3)ncn4C3CCCCC3)n2)C[C@@H]1O"
result_type = "IC50"
readout_number = 1800

[[record]]
compound = "CN(C)CCN(C)c1cc(-c2cncc(N3CCCC3)c2)c2nc[nH]c2c1C(N)=O"
result_type = "IC50"
readout_number = 280

